Provide the recorded AUCtot for the entries that follow.
assay: Absorption in rats after intragastric administration of different crystal forms (plasma PK, LC/MS/MS); type: in vivo; details: SD rats, 8 mg/kg

Challenge: Looking for the measured AUCtot of CCOc1cc2ncnc(Nc3ccc(Oc4ccn5ncnc5c4)c(C)c3)c2cc1NC(=O)/C(F)=C/[C@H]1CCCN1C [Amorphous form] , can you help?
Response given: 6586 (h)*(ng/mL)

Challenge: Also need CCOc1cc2ncnc(Nc3ccc(Oc4ccn5ncnc5c4)c(C)c3)c2cc1NC(=O)/C(F)=C/[C@H]1CCCN1C [Crystal form A] , thanks.
Response given: 4802 (h)*(ng/mL)

Challenge: Similarly, CCOc1cc2ncnc(Nc3ccc(Oc4ccn5ncnc5c4)c(C)c3)c2cc1NC(=O)/C(F)=C/[C@H]1CCCN1C [Crystal form C] ?
Response given: 6894 (h)*(ng/mL)

Challenge: Also, CCOc1cc2ncnc(Nc3ccc(Oc4ccn5ncnc5c4)c(C)c3)c2cc1NC(=O)/C(F)=C/[C@H]1CCCN1C [Crystal form M] please.
Response given: 2875 (h)*(ng/mL)

Challenge: And then CCOc1cc2ncnc(Nc3ccc(Oc4ccn5ncnc5c4)c(C)c3)c2cc1NC(=O)/C(F)=C/[C@H]1CCCN1C [Crystal form B] , what is it?
Response given: 5965 (h)*(ng/mL)

###

assay: Absorption in rats after intragastric administration of different crystal forms (plasma PK, LC/MS/MS); type: in vivo; conditions: SD rats, 8 mg/kg
Please respond with reported Cmax for every item in the list.
Reply with just the number (in ng/mL).

Challenge: State the recorded Cmax for this entry: CCOc1cc2ncnc(Nc3ccc(Oc4ccn5ncnc5c4)c(C)c3)c2cc1NC(=O)/C(F)=C/[C@H]1CCCN1C [Crystal form C]
Response given: 1165

Challenge: Let us now turn to CCOc1cc2ncnc(Nc3ccc(Oc4ccn5ncnc5c4)c(C)c3)c2cc1NC(=O)/C(F)=C/[C@H]1CCCN1C [Amorphous form]
Response given: 800

Challenge: Note, next up: CCOc1cc2ncnc(Nc3ccc(Oc4ccn5ncnc5c4)c(C)c3)c2cc1NC(=O)/C(F)=C/[C@H]1CCCN1C [Crystal form M]
Response given: 489

Challenge: Now consider CCOc1cc2ncnc(Nc3ccc(Oc4ccn5ncnc5c4)c(C)c3)c2cc1NC(=O)/C(F)=C/[C@H]1CCCN1C [Crystal form A] .
Response given: 753

Challenge: Continue with CCOc1cc2ncnc(Nc3ccc(Oc4ccn5ncnc5c4)c(C)c3)c2cc1NC(=O)/C(F)=C/[C@H]1CCCN1C [Crystal form B]
Response given: 599

###

biological target: EGFR kinase (Homo sapiens)
Sequence (P00533 25-1210): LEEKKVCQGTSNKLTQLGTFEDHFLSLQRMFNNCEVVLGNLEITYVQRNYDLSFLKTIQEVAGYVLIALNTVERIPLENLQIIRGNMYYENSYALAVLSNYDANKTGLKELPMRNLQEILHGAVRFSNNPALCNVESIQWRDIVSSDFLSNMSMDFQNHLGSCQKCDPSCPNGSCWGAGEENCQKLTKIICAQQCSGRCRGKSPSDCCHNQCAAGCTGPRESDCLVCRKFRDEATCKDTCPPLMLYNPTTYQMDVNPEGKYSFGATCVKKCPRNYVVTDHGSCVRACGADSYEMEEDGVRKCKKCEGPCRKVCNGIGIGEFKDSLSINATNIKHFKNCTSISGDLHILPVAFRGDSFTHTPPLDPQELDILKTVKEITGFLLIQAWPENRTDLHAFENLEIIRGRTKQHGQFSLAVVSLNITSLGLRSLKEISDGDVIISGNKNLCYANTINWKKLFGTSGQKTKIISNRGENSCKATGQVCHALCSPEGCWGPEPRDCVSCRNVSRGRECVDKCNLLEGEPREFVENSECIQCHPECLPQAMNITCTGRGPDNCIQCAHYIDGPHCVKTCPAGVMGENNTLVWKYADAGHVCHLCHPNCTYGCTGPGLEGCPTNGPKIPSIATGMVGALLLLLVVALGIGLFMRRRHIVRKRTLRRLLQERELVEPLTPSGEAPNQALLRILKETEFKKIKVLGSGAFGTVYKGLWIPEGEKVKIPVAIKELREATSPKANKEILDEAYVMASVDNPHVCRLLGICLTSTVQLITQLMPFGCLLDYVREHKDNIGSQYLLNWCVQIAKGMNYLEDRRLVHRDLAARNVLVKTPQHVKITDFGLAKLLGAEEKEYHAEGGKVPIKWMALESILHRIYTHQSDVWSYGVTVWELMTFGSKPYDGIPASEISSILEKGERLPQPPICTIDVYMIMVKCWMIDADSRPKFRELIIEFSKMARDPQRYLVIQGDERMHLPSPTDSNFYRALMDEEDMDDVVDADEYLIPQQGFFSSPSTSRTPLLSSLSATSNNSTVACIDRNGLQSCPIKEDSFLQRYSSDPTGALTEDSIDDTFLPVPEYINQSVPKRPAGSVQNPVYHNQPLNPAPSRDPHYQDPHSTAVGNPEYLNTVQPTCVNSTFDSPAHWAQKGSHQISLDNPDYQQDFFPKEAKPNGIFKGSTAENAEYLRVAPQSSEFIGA
Result Type: IC50 (nM)
State the answer as a number, implicitly in nM.

Challenge: Bench note: what IC50 did CCOc1cc2ncnc(Nc3ccc(Oc4ccn5ncnc5c4)c(C)c3)c2cc1NC(=O)/C(F)=C/[C@H]1CCCN1C [Crystal form C] show?
Response given: 1.45

###

assay: Absorption in rats after intragastric administration of different crystal forms (plasma PK, LC/MS/MS); assay type: in vivo; conditions: SD rats, 8 mg/kg
Can you tell me AUClast for the items I'm about to list?

Challenge: Name the recorded AUClast for CCOc1cc2ncnc(Nc3ccc(Oc4ccn5ncnc5c4)c(C)c3)c2cc1NC(=O)/C(F)=C/[C@H]1CCCN1C [Crystal form M] .
Response given: 2870 (h)*(ng/mL)

Challenge: Likewise for CCOc1cc2ncnc(Nc3ccc(Oc4ccn5ncnc5c4)c(C)c3)c2cc1NC(=O)/C(F)=C/[C@H]1CCCN1C [Crystal form B] ?
Response given: 5904 (h)*(ng/mL)

Challenge: Param item: CCOc1cc2ncnc(Nc3ccc(Oc4ccn5ncnc5c4)c(C)c3)c2cc1NC(=O)/C(F)=C/[C@H]1CCCN1C [Crystal form C]
Response given: 6863 (h)*(ng/mL)

Challenge: Next record, please: CCOc1cc2ncnc(Nc3ccc(Oc4ccn5ncnc5c4)c(C)c3)c2cc1NC(=O)/C(F)=C/[C@H]1CCCN1C [Amorphous form]
Response given: 6536 (h)*(ng/mL)

Challenge: Next record, please: CCOc1cc2ncnc(Nc3ccc(Oc4ccn5ncnc5c4)c(C)c3)c2cc1NC(=O)/C(F)=C/[C@H]1CCCN1C [Crystal form A]
Response given: 4789 (h)*(ng/mL)

Hey, just so you know, these numbers are from patent US20250163053A1.
